Test system: NOMO1
Assay Remarks: cell viability relative to DMSO control; higher = less cytotoxic
Test Settings: RPMI 5 mM glucose + 10% FBS; 48 h; 0.19 µM
Listed here: items and their measured cell viability.
Answer format: numeric, % implied, no suffix.

- Chemical String: "OC1=CC=C(C=C1)\\C2=C\\OC3=C(C=CC(=C3)O)C2=O"
  cell viability [%]: 96.2
- Chemical String: "COC1=CC=CC2=C1C(=NC(=N2)C3=CC=CS3)NN4C(=O)\\C=C(C)/C4=O"
  cell viability [%]: 78.2

Lab note: next compound to report on.
*Q* Value lookup for cell viability; key = CN(CC#C)C/C1=C/C2=CC=CC=C2OC3=CC=CC=C13
*A* 77.5

Origin of values: the supplement of paper PMC11451515
